Study system: T1, cMet-Fc fusion protein (extracellular domain of the cMet receptor expressed as an Fc-fusion protein) (human, UniProt P08581 25-932)
T1 construct: extracellular domain; also called soluble cMet-Fc-fusion protein; soluble cMet receptor; not shown: Fc part
T1 sequence (P08581 25-932): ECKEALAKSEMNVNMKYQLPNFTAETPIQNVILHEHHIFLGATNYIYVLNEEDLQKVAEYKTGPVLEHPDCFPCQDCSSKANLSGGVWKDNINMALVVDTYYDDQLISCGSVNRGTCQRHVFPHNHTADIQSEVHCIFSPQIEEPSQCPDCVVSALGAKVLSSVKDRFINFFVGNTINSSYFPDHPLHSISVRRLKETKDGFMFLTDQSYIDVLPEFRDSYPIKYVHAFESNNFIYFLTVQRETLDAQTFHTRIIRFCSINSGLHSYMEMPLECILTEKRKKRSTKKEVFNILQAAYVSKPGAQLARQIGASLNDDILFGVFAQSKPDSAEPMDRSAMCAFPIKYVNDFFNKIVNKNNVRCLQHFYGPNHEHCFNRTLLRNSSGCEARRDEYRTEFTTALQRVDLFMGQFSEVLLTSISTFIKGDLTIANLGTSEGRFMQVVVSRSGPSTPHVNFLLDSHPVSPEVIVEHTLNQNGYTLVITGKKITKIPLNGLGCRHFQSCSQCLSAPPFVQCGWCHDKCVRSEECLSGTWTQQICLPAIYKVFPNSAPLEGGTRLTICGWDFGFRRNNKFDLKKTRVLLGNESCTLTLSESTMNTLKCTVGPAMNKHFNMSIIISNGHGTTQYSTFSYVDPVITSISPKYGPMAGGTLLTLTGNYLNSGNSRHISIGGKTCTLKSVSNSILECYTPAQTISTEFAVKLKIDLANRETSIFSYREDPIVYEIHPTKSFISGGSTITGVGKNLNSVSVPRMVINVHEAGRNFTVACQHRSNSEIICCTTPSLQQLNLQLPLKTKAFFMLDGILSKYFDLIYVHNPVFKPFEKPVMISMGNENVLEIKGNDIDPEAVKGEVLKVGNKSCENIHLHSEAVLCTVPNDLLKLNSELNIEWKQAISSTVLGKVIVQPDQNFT
Assay overview: phage ELISA on cMet-Fc, competitor HGF 100 ng/mL
% of binding in the absence of HGF of 80% or higher: YES. Under 80%: NO.

Please check the record AQGGRYPFYDTDWFKWEMYVL [527-A10 peptide-displaying phage (SEQ ID NO: 496)] and state if its % of binding in the absence of HGF is at or above 80%.
YES

Please check the record AQPYYELQDADMLLVVALLSTG [94-F07 peptide-displaying phage (SEQ ID NO: 458)] and state if its % of binding in the absence of HGF is at or above 80%.
YES

Please check the record AQFDRYWHFAWMDVSFSSGQSG [92-B05 peptide-displaying phage (SEQ ID NO: 465)] and state if its % of binding in the absence of HGF is at or above 80%.
YES

Please check the record AQMWHRVHDPGYTFEVTWLWDN [166-H04 peptide-displaying phage (SEQ ID NO: 488)] and state if its % of binding in the absence of HGF is at or above 80%.
NO

Please check the record AGWFQCKGPPSFECERHGT [336-G04 peptide-displaying phage (SEQ ID NO: 051)] and state if its % of binding in the absence of HGF is at or above 80%.
NO

Please check the record AQMGHHWDVQWDYKLFHVARGD [136-D01 peptide-displaying phage (SEQ ID NO: 473)] and state if its % of binding in the absence of HGF is at or above 80%.
YES

Reference source for all entries: patent US20120039802A1
